Test Description: in vitro
Settings: human
Value Kind: cytotoxicity at 24 h, 5 μg/ml

In [3]: df
Out[3]:
                                   molecule  measured_result
0  CC[C@H](CO)Nc1nc(NCc2ccccc2)c2ncn(C(C)C)c2n1 [CYC202]            31.4%

====

Test Description: in vitro
Settings: human
Value Kind: cytotoxicity at 48 h, 5 μg/ml (%)

>>> print(df.to_string())
                               entry_smiles                     value_kind  measured_result
0  CC[C@H](CO)Nc1nc(NCc2ccccc2)c2ncn(C(C)C)c2n1  cytotoxicity at 48 h, 5 μg/ml             47.4

Source of measurements: patent US20050153991A1
